Data origin, for the record: PubChem BioAssay (NCI)

Below is a list of entries, each paired with its recorded growth value.
test system: COLO 205 colon; experiment: NCI-60 one-dose screen, 48 h (100 = growth as untreated, 0 = no growth, -100 = all killed); details: 10 µM unless noted
About 83,000 compounds went through this panel and 20% of them were active in at least one assay; those are over-represented in the sample as a whole.
State just the number; it will be interpreted in %.

Previously resolved entries follow.
1. COc1ccccc1CNCCCN1C(=O)c2ccc3c4c(ccc(c24)C1=O)C(=O)N(CCCNCCCN)C3=O = -87.8
2. CC(C)c1nc2ccccc2n1CC(=O)N/N=C/c1cccc(O)c1 = 108

As a next step, examine the compound that follows.
Q) Which growth value belongs to `CN1C2CCC1/C(=C\c1ccc(F)cc1)C(=O)/C2=C/c1ccc(F)cc1` ?
A) 14.8
